system.tested: IMP-10 (Serratia marcescens, UniProt P52699, V49F)
Sequence (P52699 19-246 V49F): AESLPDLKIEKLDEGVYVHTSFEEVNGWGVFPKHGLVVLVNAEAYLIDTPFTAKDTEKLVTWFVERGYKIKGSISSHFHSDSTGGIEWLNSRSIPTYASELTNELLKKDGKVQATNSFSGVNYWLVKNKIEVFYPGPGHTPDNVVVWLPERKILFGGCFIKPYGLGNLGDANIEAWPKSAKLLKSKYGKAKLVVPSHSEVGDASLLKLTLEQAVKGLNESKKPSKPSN
assay.procedure: IC50, inhibition of cephalothin hydrolysis by crude extract
condition.parameters: IMP-10; 100 μM cephalothin, pH 7.0
metric.name: IC50 (µM)
Answer with a number only, understood to be in µM.

Suppose we examine the molecule O=C(O)[C@@H](S)[C@@H](S)C(=O)O [DMSA, meso-dimercaptosuccinic acid] ; what IC50 value has been reported?
50

---

Listing of entries alongside the reported MIC.
Test system: PAO1 TnoprD producing IMP-13
assay.procedure: MIC and checkerboard by broth microdilution, recombinant strain
Format: cell-based, Pseudomonas aeruginosa
condition.parameters: IMP-13 TnoprD; antibiotic alone
From the text: Pseudomonas aeruginosa isolate, PAO1, was used alongside its isogenic counterpart, PAO1 TnoprD, which lacks a functional OprD porin (Held et al. [2012]). β-lactamases, blaIMP-1, blaIMP-10, blaIMP-13, blaNDM-1, blaSPM-1, blaVIM-1, blaVIM-2, and blaKPC-2, had previously been cloned into the pUCP24 shuttle vector (Bouvier et al. [2025]), and were transformed by electroporation into both PAO1 and PAO1 TnoprD. . […]
Please respond with the number in µg/mL and leave the unit unwritten.

Recorded MIC, per entry:
[[record]]
compound = "C[C@@H](O)[C@H]1C(=O)N2C(C(=O)O)=C(S[C@@H]3CN[C@H](C(=O)N(C)C)C3)[C@H](C)[C@H]12"
system_tested = "PAO1 TnoprD producing IMP-13"
unit_string = "µg/mL"
numeric_readout = 8

[[record]]
compound = "C[C@@H](O)[C@H]1C(=O)N2C(C(=O)O)=C(SCCN=CN)C[C@H]12"
system_tested = "PAO1 TnoprD producing IMP-13"
unit_string = "µg/mL"
numeric_readout = 8

[[record]]
compound = "CC(C)(O/N=C(\\C(=O)N[C@@H]1C(=O)N2C(C(=O)[O-])=C(C[n+]3ccccc3)CS[C@H]12)c1csc(N)n1)C(=O)O"
system_tested = "PAO1 TnoprD producing IMP-13"
unit_string = "µg/mL"
numeric_readout = 64


Shifting focus to the compound that follows.
Looking for the measured MIC of CO/N=C(\C(=O)N[C@@H]1C(=O)N2C(C(=O)[O-])=C(C[N+]3(C)CCCC3)CS[C@H]12)c1csc(N)n1 [FEP, cefepime] , can you help?
16

---

system.tested: VIM-1 (Pseudomonas aeruginosa)
assay.procedure: IC50, inhibition of cephalothin hydrolysis by crude extract
metric.name: IC50 (nM)
Give the number; nM is assumed, so skip it.

# input compound: `O=C(O)c1c(F)ccc2c1OB(O)[C@@H]1C[C@H]21` ; wanted: its IC50
500
